Each recorded value in this set is attributed to patent US20120277164A1.

# study.target: T1, Gadd45β/MKK7 complex (biotin-hGadd45β with coated GST-MKK7, ELISA format) (human, UniProt O75293 1-160; O14733 1-419, biotinylated (sites not given))
# T1 construct: not shown: glutathione S-transferase (GST) fusion partner
# T1 sequence (looked up) 1: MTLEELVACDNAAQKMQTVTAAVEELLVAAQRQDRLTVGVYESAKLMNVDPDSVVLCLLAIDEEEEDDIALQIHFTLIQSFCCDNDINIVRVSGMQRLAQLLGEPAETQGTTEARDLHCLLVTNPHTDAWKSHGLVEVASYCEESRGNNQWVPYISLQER
# T1 sequence (looked up) 2: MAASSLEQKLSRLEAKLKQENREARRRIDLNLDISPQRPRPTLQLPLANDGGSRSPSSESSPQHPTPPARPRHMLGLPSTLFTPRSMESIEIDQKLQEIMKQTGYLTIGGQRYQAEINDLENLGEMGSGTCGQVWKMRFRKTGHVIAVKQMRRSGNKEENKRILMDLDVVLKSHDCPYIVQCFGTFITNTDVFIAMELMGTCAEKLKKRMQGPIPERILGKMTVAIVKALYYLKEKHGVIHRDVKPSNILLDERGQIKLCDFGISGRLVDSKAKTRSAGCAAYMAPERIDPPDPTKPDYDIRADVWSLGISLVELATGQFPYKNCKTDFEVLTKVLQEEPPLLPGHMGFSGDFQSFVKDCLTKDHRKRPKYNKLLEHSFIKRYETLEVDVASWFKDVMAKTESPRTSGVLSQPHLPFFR
# test.method.notes: competition ELISA; coated MKK7 42 nM, biotin-hGadd45β 21 nM, competitor 42 nM nominal
* marks the point of attachment. Fmoc = O=C(OCC1c2ccccc2-c2ccccc21)*; βAla = NCCC(=O)O
reported.endpoint: % Inhibition of Gadd45β-MKK7 binding (%)

binder	measure.unit	% Inhibition of Gadd45β-MKK7 binding
{Fmoc-βAla-βAla}-YDHP-NH2 (SMILES NC(=O)[C@@H]1CCCN1C(=O)[C@H](Cc1c[nH]cn1)NC(=O)[C@H](CC(=O)O)NC(=O)[C@H](Cc1ccc(O)cc1)NC(=O)CCNC(=O)CCNC(=O)OCC1c2ccccc2-c2ccccc21) [Fmoc(βAla)2-YDHP-NH2]	%	16

(1) {Fmoc-βAla-βAla}-YDHA-NH2 (SMILES C[C@H](NC(=O)[C@H](Cc1c[nH]cn1)NC(=O)[C@H](CC(=O)O)NC(=O)[C@H](Cc1ccc(O)cc1)NC(=O)CCNC(=O)CCNC(=O)OCC1c2ccccc2-c2ccccc21)C(N)=O) [Fmoc(βAla)2-YDHA-NH2]
(2) {Fmoc-βAla-βAla}-YDHC-NH2 (SMILES NC(=O)[C@H](CS)NC(=O)[C@H](Cc1c[nH]cn1)NC(=O)[C@H](CC(=O)O)NC(=O)[C@H](Cc1ccc(O)cc1)NC(=O)CCNC(=O)CCNC(=O)OCC1c2ccccc2-c2ccccc21) [Fmoc(βAla)2-YDHC-NH2]
(3) {Fmoc-βAla-βAla}-YDHQ-NH2 [Fmoc(βAla)2-YDHQ-NH2]
Kindly order the items shown according to % Inhibition of Gadd45β-MKK7 binding, from the highest value down. Please list the labels according to the requested order.
2, 1, 3
(2: 44%, 1: 15%, 3: 0%)
